Ki values for UniProtKB P00742, compiled from several publications.
Answer in nM, number only, no unit symbol.

Solved entries:
INSERT INTO measurements (molecule, readout_type, readout_value) VALUES
  ('CNCc1ccccc1-c1ccc(N2CCc3c(C(N)=O)nn(-c4ccc(OC)cc4)c3C2=O)cc1', 'Ki', 0.15),
  ('COc1cc(C(=N)N)cc(Oc2nc(Oc3cccc(C(=O)N(C)C)c3)c(F)c(C)c2F)c1OC', 'Ki', 180),
  ('CCOc1cc(OC(C)C)c(F)c(C(Nc2ccc(C(=N)N)cc2)c2nc(-c3cccc(C)c3)c[nH]2)c1 (configuration not stated)', 'Ki', 450);

Quick one: Ki of `COc1ccc2ccc(S(=O)(=O)N[C@H]3CCN(Cc4ccc(C(=N)N)s4)C3=O)cc2c1` ? 220

Quick one: Ki of `CS(=O)(=O)c1ccccc1-c1ccc(CC(=O)c2cc(C(F)(F)F)nn2-c2ccc3onc(N)c3c2)cc1` ? 0.68
